Values compiled from ChEMBL document CHEMBL1821652.

- assay-name: Half life in human plasma
- Type: ADME, cell-free
Response field label takes 1 (yes) when half-life is strictly below 40 min and 0 (no) in all other cases.

Reference set (2 entries):
CCOC(=O)[C@H]1O[C@@H](Oc2cc3oc(-c4ccc(O)cc4)cc(=O)c3c(O)c2O)[C@H](O)[C@@H](O)[C@@H]1O ... 0 (no)
CC(C)CC(=O)Oc1ccc2c3c1O[C@H]1C(=O)CC[C@@]4(O)[C@@H](C2)N(CC2CC2)CC[C@]314 ... 1 (yes)

Query string: State whether 40 min exceeds half-life recorded for CCCN(CCC)Cc1ccc(C(=O)OCCOCn2cnc3c(=O)[nH]c(N)nc32)cc1 .
Result string: 1 (yes)

Query string: State whether 40 min exceeds half-life recorded for C[C@H](NC(=O)[C@H](N)CCC(=O)OCc1ccccc1)C(=O)O .
Result string: 0 (no)

Query string: State whether 40 min exceeds half-life recorded for CCCCCCCC(=O)OC[C@H]1O[C@@H](n2cnc3c(NC4CCCC4)ncnc32)[C@H](O)[C@@H]1O .
Result string: 1 (yes)

Query string: State whether 40 min exceeds half-life recorded for CC(C)(C)C(=O)Oc1ccc2c3c1O[C@H]1C(=O)CC[C@@]4(O)[C@@H](C2)N(CC2CC2)CC[C@]314 .
Result string: 0 (no)

Query string: State whether 40 min exceeds half-life recorded for CCOC(=O)CN(COC(=O)Cc1ccccc1Nc1c(Cl)cccc1Cl)C(=O)c1ccccc1 .
Result string: 0 (no)

Query string: State whether 40 min exceeds half-life recorded for CCN(CC)C(=O)COC(=O)[C@H]1O[C@@H](Oc2cc3oc(-c4ccc(O)cc4)cc(=O)c3c(O)c2O)[C@H](O)[C@@H](O)[C@@H]1O .
Result string: 1 (yes)

* * *

Each item that follows carries a reported half-life.
- assay-name: Half life in human plasma
- Type: ADME, cell-free
Write down the numeric answer in min and omit the unit.

CCOC(=O)CNC(=O)OCOC(=O)c1cccnc1 ... 0.43
CCOC(=O)c1ccc(/N=N/N(C)C(=O)OCOC(=O)c2ccccc2O)cc1 ... 34

Query string: Value lookup for half-life; key = CC(C)OC(=O)Oc1ccc2c3c1O[C@H]1C(=O)CC[C@@]4(O)[C@@H](C2)N(CC2CC2)CC[C@]314
Result string: 39

Query string: Value lookup for half-life; key = NCCCC[C@H](N)C(=O)OC[C@H]1O[C@@H](n2cc(F)c(=O)[nH]c2=O)C[C@@H]1O
Result string: 38.8

* * *

- assay-name: Half life in human plasma
- Assay type: ADME, cell-free
quantity-name: half-life (min)
Write down the numeric answer in min and omit the unit.

Query string: Value lookup for half-life; key = C[C@H](NC(=O)[C@H](N)CCC(=O)OCCc1ccccc1)C(=O)O
Result string: 97

Query string: Value lookup for half-life; key = CCOC(=O)c1ccc(/N=N/N(C)C(=O)OCOC(=O)c2ccccc2OC(C)=O)cc1
Result string: 1

Query string: Value lookup for half-life; key = CCCCC(=O)OCn1cnc2c1c(=O)n(C)c(=O)n2C
Result string: 0.19

Query string: Value lookup for half-life; key = N[C@@H](CC(=O)O)C(=O)O[C@H]1C[C@H](n2cc(F)c(=O)[nH]c2=O)O[C@@H]1CO
Result string: 53.9
